target: human Tie2 (Homo sapiens); construct: human Tie2 corresponding to amino acids 776-1124 of the intracellular domain was generated by PCR; made in house; host or cells: baculovirus expression system (vector pFastBacGT); assay: Tie2 kinase inhibition: phosphorylation of GST-PLC (SH2-SH3 fragments) by GST-Tie2, 33P-ATP flashplate; type: biochemical; conditions: read-out: Tie2 % Inhib. 10 μM
Sequence (Q02763 776-1124): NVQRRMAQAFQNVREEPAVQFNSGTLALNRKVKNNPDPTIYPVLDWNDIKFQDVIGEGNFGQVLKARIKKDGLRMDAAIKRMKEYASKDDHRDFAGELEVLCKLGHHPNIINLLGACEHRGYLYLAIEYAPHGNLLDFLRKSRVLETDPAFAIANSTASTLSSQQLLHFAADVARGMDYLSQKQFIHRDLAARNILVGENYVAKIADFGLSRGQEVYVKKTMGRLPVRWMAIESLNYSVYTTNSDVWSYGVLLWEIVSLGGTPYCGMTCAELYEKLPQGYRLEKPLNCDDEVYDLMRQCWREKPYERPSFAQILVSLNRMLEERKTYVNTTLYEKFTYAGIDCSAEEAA
value type: inhibition at 10 µM (%)
The answer is to be given in %; state only the numeric part.

Q) // query inhibition at 10 µM value for entry `CCS(=O)(=O)N1CCc2c(n[nH]c2-c2nc3cc(C)c(C)cc3[nH]2)C1`
A) 78.5

Q) What value of measured inhibition at 10 µM is listed for `Cc1cc2nc(-c3[nH]nc4c3CCN(Cc3cccnc3)C4)[nH]c2cc1C` ?
A) 50.5

Q) Report inhibition at 10 µM for `Cc1cc2nc(-c3[nH]nc4c3CCN(C(=O)c3ccccc3)C4)[nH]c2cc1C` please.
A) 86.3

Q) Would you kindly share the measured inhibition at 10 µM for `CC(=O)N1CCc2c(n[nH]c2-c2nc3cc(C)c(C)cc3[nH]2)C1` ?
A) 90.8

Q) Requested field: inhibition at 10 µM. Item: `Cc1cc2nc(-c3[nH]nc4c3CCN(S(=O)(=O)c3cccc(Cl)c3)C4)[nH]c2cc1C`
A) 91.5

Q) What measured inhibition at 10 µM goes with `COc1ccc(S(=O)(=O)N2CCc3c(n[nH]c3-c3nc4cc(C)c(C)cc4[nH]3)C2)cc1` ?
A) 84.7

---

Field: inhibition at 10 µM. Provide a value for each of the compounds that follow.
biological target: human KDR enzyme (Homo sapiens); construct: The cytoplasmic domain of the human KDR enzyme was cloned in GST fusion form; GST; made in house; host or cells: SF21 insect cells (baculovirus, pFastBac); test: KDR kinase inhibition: phosphorylation of PLCγ SH2-SH3 substrate by KDR enzyme, 33P-ATP scintillation plate; type: biochemical; details: read-out: KDR % Inhib. 10 μM
Sequence (P35968 786-1356 limits assumed): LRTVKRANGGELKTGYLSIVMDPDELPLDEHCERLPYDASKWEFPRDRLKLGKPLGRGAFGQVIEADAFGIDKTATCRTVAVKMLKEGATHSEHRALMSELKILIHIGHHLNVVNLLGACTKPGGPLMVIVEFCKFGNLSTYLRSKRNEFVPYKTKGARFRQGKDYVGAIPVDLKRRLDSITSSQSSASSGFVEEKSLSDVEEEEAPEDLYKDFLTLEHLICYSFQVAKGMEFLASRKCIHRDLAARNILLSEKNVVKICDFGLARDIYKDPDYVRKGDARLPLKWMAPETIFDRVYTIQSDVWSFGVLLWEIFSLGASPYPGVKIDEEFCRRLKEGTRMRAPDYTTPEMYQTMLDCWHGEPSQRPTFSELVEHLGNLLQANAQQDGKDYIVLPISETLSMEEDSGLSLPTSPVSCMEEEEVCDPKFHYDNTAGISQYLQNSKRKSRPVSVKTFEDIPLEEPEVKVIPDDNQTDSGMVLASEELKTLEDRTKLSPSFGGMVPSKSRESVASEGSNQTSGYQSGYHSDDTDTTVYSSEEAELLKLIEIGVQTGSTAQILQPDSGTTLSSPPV
The response must be a number in % with no trailing unit.

Q) # returns recorded inhibition at 10 µM (system: human KDR enzyme (Homo sapiens)) for `Cc1cc2nc(-c3[nH]nc4c3CCN(S(=O)(=O)c3ccccc3)C4)[nH]c2cc1C`
A) 48

Q) Requested read-out inhibition at 10 µM, target or system human KDR enzyme (Homo sapiens), entry `Cc1cc2nc(-c3[nH]nc4c3CCN(Cc3cccnc3)C4)[nH]c2cc1C`
A) 14.8

Q) Write down the reported inhibition at 10 µM of `Cc1cc2nc(-c3[nH]nc4c3CCN(C(=O)Nc3ccccc3)C4)[nH]c2cc1C` , test system: human KDR enzyme (Homo sapiens).
A) 17.6

Q) Form entry - test system: human KDR enzyme (Homo sapiens); read-out: inhibition at 10 µM; compound: `Cc1cc2nc(-c3[nH]nc4c3CCN(CC3CC3)C4)[nH]c2cc1C`
A) 1.85

Q) Provide value of inhibition at 10 µM for this record tested with human KDR enzyme (Homo sapiens): `Cc1cc2nc(-c3[nH]nc4c3CCN(C(=O)c3cccc(Cl)c3)C4)[nH]c2cc1C`
A) 78.5

Q) Kindly state the measured inhibition at 10 µM obtained for `Cc1cc2nc(-c3[nH]nc4c3CCN(S(=O)(=O)c3ccccc3C)C4)[nH]c2cc1C` with human KDR enzyme (Homo sapiens).
A) 49.4

Q) Please state recorded inhibition at 10 µM (tested on human KDR enzyme (Homo sapiens)) of `Cc1cc2nc(-c3[nH]nc4c3CCN(C(=O)NCCc3ccccc3)C4)[nH]c2cc1C`
A) 77.2

Q) Under human KDR enzyme (Homo sapiens): inhibition at 10 µM value of `COc1ccccc1S(=O)(=O)N1CCc2c(-c3nc4cc(C)c(C)cc4[nH]3)n[nH]c2C1` ?
A) 30.9

Q) Write down the reported inhibition at 10 µM of `CCCS(=O)(=O)N1CCc2c(n[nH]c2-c2nc3cc(C)c(C)cc3[nH]2)C1` , test system: human KDR enzyme (Homo sapiens).
A) 13.3

Q) Give recorded inhibition at 10 µM with human KDR enzyme (Homo sapiens) for the following compound: `Cc1cc2nc(-c3[nH]nc4c3CCN(CCC(C)C)C4)[nH]c2cc1C`
A) -2.9

Q) I'm curious: which inhibition at 10 µM was measured for `Cc1cc2nc(-c3[nH]nc4c3CCN(C(=O)Nc3ccc(Cl)cc3)C4)[nH]c2cc1C` tested on human KDR enzyme (Homo sapiens)?
A) -0.3

---

Provide the recorded inhibition at 10 µM for the entries that follow.
target: human KDR enzyme (Homo sapiens); construct: The cytoplasmic domain of the human KDR enzyme was cloned in GST fusion form; GST; made in house; host or cells: SF21 insect cells (baculovirus, pFastBac); experiment: KDR kinase inhibition: phosphorylation of PLCγ SH2-SH3 substrate by KDR enzyme, 33P-ATP scintillation plate; assay type: biochemical; details: read-out: KDR % Inhib. 10 μM
Kindly report the value followed by its unit.

Q) Request the reported inhibition at 10 µM associated with `CCCCC(=O)N1CCc2c(n[nH]c2-c2nc3cc(C)c(C)cc3[nH]2)C1`
A) 46.6%

Q) Request the reported inhibition at 10 µM associated with `Cc1cc2nc(-c3[nH]nc4c3CCN(S(=O)(=O)c3cccc(Cl)c3)C4)[nH]c2cc1C`
A) 46.5%

Q) Look up inhibition at 10 µM for this compound: `CCCCS(=O)(=O)N1CCc2c(n[nH]c2-c2nc3cc(C)c(C)cc3[nH]2)C1`
A) 15.3%

Q) Need inhibition at 10 µM of `Clc1cccc(CN2CCc3c(n[nH]c3-c3nc4ccccc4[nH]3)C2)c1` , thanks.
A) 92.1%

Q) Value lookup for inhibition at 10 µM; key = `Cc1cc2nc(-c3[nH]nc4c3CCN(C(=O)CCc3ccccc3)C4)[nH]c2cc1C`
A) 74.8%

Q) May I ask what inhibition at 10 µM has been recorded for `C=CCC(=O)N1CCc2c(n[nH]c2-c2nc3cc(C)c(C)cc3[nH]2)C1` ?
A) 38.7%

Q) I have this compound here, `Cc1cc2nc(-c3[nH]nc4c3CCN(C(=O)c3ccco3)C4)[nH]c2cc1C` , and I need its recorded inhibition at 10 µM.
A) 74.5%

Q) Suppose we examine the compound `Cc1cc2nc(-c3[nH]nc4c3CCN(C(=O)c3ccc(Cl)cc3)C4)[nH]c2cc1C` ; what inhibition at 10 µM value has been reported?
A) 42%

Q) Which value of inhibition at 10 µM has been reported for `Cc1cccc(S(=O)(=O)N2CCc3c(n[nH]c3-c3nc4cc(C)c(C)cc4[nH]3)C2)c1` in the records?
A) 41.2%

The measured values listed here are drawn from patent US7435820B2.
